assay: yeast display, Sf9 membrane polyspecificity reagent, FACS + sequencing; frameworks hold sequencing errors
ASSAY_ENDPOINT: polyreactivity (PSR sort gate)

The cases that follow already have their polyreactivity (PSR sort gate) on record.
- ITEM_SEQUENCE: "QVQLVESGGGLVQAGGSHRLSCAASGSIFYQYAMGSYRQAPGKERELVAAITWIGSTYYADSVKGRFTISRDNAKNTVYLQMNSLKPEDTAVYYCNTDPYVLQKYDYWGQGTQVTVSS"
  ASSAY_ENDPOINT: "polyreactivity (PSR sort gate)"
  MEASURED: "low polyreactivity"
- ITEM_SEQUENCE: "QVQLVESGGGLVQAGGSLRLSFAASGSTFDWYVMGWYRQAPGKERELVAAINQGSGSTYYADSVKGRFTISRDNAKNTVYFQMNSLKPEDTAVYYCAADRYGAGYLYWPYDYWGQGTQVTVSS"
  ASSAY_ENDPOINT: "polyreactivity (PSR sort gate)"
  MEASURED: "low polyreactivity"
- ITEM_SEQUENCE: "QVQLVESGGGLVQAGGSLRLSCAASGSIFDANAMGWYRQAPGKEREVVAAISYRGGRTYYADSVKGRFTISRDNAKNTVYLQMNSLKPEDTAVYYCNAGISHRSDNGIDGYYWGQGTQVTVSS"
  ASSAY_ENDPOINT: "polyreactivity (PSR sort gate)"
  MEASURED: "high polyreactivity"
- ITEM_SEQUENCE: "QVQLVESGGGLVQVGGSLRLSCAASGLTFYANAMGWYRQAPGKEREVVAAIRKRGGSTYYADSVKGRFTISRDNAKNTVYFQMNSLKPEDTAVYYGATYGGPFSVGTGFHDVRYDYWGHGTQVTVSS"
  ASSAY_ENDPOINT: "polyreactivity (PSR sort gate)"
  MEASURED: "low polyreactivity"
- ITEM_SEQUENCE: "QVQLVESGVGLVQAGGSLRLSCAASGIITFYNAMGWYRQAPGKERELVAAITWSGGSTYYADSVKGRFTISRDNAKNTVYVQLNSLKPEDTAVYYCAADVVSVVYLPFVNGGDYWGLGTQVTVSS"
  ASSAY_ENDPOINT: "polyreactivity (PSR sort gate)"
  MEASURED: "low polyreactivity"
- ITEM_SEQUENCE: "QVQLVESGGGLVQAGGSLRLSCAASGSIFYVNAMGWYRQAPGTERELVAAISWRSGRTYYADSVKGRFTISRDHAKNTVYLQMHSLKPEDTAVYYCAARVRRGSTQAQYYYWGQGTQVTVSS"
  ASSAY_ENDPOINT: "polyreactivity (PSR sort gate)"
  MEASURED: "high polyreactivity"

# input for lookup
QUERY: // returns reported polyreactivity (PSR sort gate) for input QVQLVESGGGLVQAGGSLRLSCAASGSTFVQYVMGWYRQAPGKERELVAAISSSGGSTYYADSVKGRFTISRDNAKNTVYLQMNSLKPEDTAVYYCAAYYFVAQARYDYWGQGTQVTVSS
RESULT: high polyreactivity

====

assay: yeast display, Sf9 membrane polyspecificity reagent, FACS + sequencing; frameworks hold sequencing errors
ASSAY_ENDPOINT: polyreactivity (PSR sort gate)

The cases that follow already have their polyreactivity (PSR sort gate) on record.
- ITEM_SEQUENCE: "QVQLVESGGRLVQAGGSLRLSCAASGSILTSYPMGWNRQAPGKERELVAAISTTGGSTYYADSVKGRFTISRDNAKNTVYLQMNSLKPEDTAVYYCAKASGSGGEMDYWGQGTQVTVSS"
  polyreactivity (PSR sort gate): "low polyreactivity"
- ITEM_SEQUENCE: "QVQLVESGGGLVQAGGSLRLSCAASGLIFSSNAMGWYRQAPGKERELVATISWSGGSTYYADSVKGRFTISRDNAKNTVYLQMNSLKPEDTAVYYCAAVTHPAWAVEYDYWGQGTQVTVSS"
  polyreactivity (PSR sort gate): "high polyreactivity"
- ITEM_SEQUENCE: "QVQLVESGGGLVQAGGSLRLSCAASGGTFRKYAMGWYRPAPGKERELVATISNGGSTYYADSVKGRFTISRDNAKNTVYLQMNSLIPEDTAVYYCAARFDYWVSGGLVKYNYWGQGTQVTVSS"
  polyreactivity (PSR sort gate): "high polyreactivity"
- ITEM_SEQUENCE: "QVQLVDSAGGLVQSGGSQRLSCAASGSIFHVYPMGCYRQAPGKERELVAAIRRRGGSTYYADSVKGRFTISRDTAKNTVYLQMNSLKPEDTAVYYCAARSVGFYRYDYWGQGTQVTVSS"
  polyreactivity (PSR sort gate): "low polyreactivity"

# input for lookup
QUERY: // returns reported polyreactivity (PSR sort gate) for input QVQLVESGGGLVQAGGSLRLSCAASGSTFDFYAMGWYRQAPGKERELVAAISWSAGSTYYADSVKGRFTISRDIAKNTVYLQMNSLKPEDTAVYYCNADYWGQGTQVTVSS
RESULT: low polyreactivity

====

experiment: yeast display, Sf9 membrane polyspecificity reagent, FACS + sequencing; frameworks hold sequencing errors

- ITEM_SEQUENCE: "QVQLVESGGGLVQAGGRLRLSCAASGRTFRPYAMGWYRQAPGKERELVAAITSGGSTYYADSVKGRFTISRDNAKNTVYFQMNSLKPEDTAVYYCNAKYYYQPPYDYWGQGTQVTVSS"
  polyreactivity (PSR sort gate): "low polyreactivity"
- ITEM_SEQUENCE: "QVQLVESGGGLVQAGGSLRLSCAASGRIFNYYAMGWYRQAPGKERELVAGISGSGTSTYYADSVKGRFTISRDNAKNTVYLQMNSLKPEDTAVYYCAADVFRDDVWLDYWGQGTQVTVSS"
  polyreactivity (PSR sort gate): "low polyreactivity"

====

assay: yeast display, Sf9 membrane polyspecificity reagent, FACS + sequencing; frameworks hold sequencing errors

- ITEM_SEQUENCE: "QVQLVESGGGLVQAGGSLRLSCAASGGTFYGYAMGWYRQAPGKERELVAAINYRGGRTYYADSVKGRFTISRDNAKNTVYLQMNSLKPEDTAVYYCAATSYRLDGYDYWGQGTQVTVSS"
  polyreactivity (PSR sort gate): "high polyreactivity"
- ITEM_SEQUENCE: "QVQLVESGGGLVQAGGSLRLSCAASGFIFSCYAMGWDRQAPGKERELVAAISWSGGSTYYADSVKGRFTISRDNAKNTVYLQMNSLKPEDTAVYYCAADRGYRRLFLNNVDYWGQGTQVTVSS"
  polyreactivity (PSR sort gate): "high polyreactivity"

====

experiment: yeast display, Sf9 membrane polyspecificity reagent, FACS + sequencing; frameworks hold sequencing errors

- ITEM_SEQUENCE: "QVQLVESGAGLVQAGGSLRLSCAASGSTFSYYAMGWSRQAPGKERELVAAITSSGGSTYYADSVKGRFTISRDNAKNTVYLQMNSLKQEDTAVYYCNTAYHVPYDYWGQGTQVTVSS"
  polyreactivity (PSR sort gate): "low polyreactivity"
- ITEM_SEQUENCE: "QVQIVESGGGLVQAGGSLSLICAASGFIIDDNTMGWYRQAPGKERELVAAISYSAGSTYYADSVKGRFTISRDNAKNTVFLQMISVKTEDTAVYYCAAQHYWVTSYLSSYDYWGQGTQVTVSS"
  polyreactivity (PSR sort gate): "low polyreactivity"

====

test: yeast display, Sf9 membrane polyspecificity reagent, FACS + sequencing; frameworks hold sequencing errors
ASSAY_ENDPOINT: polyreactivity (PSR sort gate)

The cases that follow already have their polyreactivity (PSR sort gate) on record.
- ITEM_SEQUENCE: "QVQLVESGGGLVQAGGSLRLSCAASGFIFRYYAMGWYRQAPGKEREFVAVISSGGGRTYYADSVKGRFTISRDNAKNTVYLQMNSLKPEDTAVYYCAKGYRYWVRIVRSFTSYDYWGQGTQVTVSS"
  polyreactivity (PSR sort gate): "high polyreactivity"
- ITEM_SEQUENCE: "QVQLVESGGGLVQAGGSLRLSCAPSGFTFRYYAMGWYRQAPGKERELVAAISWSVGSTYYADSVKGRFTISRDNAKNTVYLQMNSLKPEDTAVYYCNAAWPGYISNRLGYDYWGQGTQVTVSS"
  polyreactivity (PSR sort gate): "high polyreactivity"
- ITEM_SEQUENCE: "QVQLVETGGGLVQAGGSLRLSCAASGRIFWRNDMGWYRQAPGKERELVAAISGSGGSTSYADSVKGRFTISRDNAKNTVYLQLNSLKPEDTAVYYFAADSESVGYEYWGQGTQVTVSS"
  polyreactivity (PSR sort gate): "high polyreactivity"
- ITEM_SEQUENCE: "QVQLVESGGGLVQAGGSLRLSCAASGRTFYPNVMGWYRQAPGKERELVAAITSGGSTYYADSVKGRFTISRDNAKNTVYLQMNSLKPEDTAVYYCAVAYAGGGSRKYDYWGQGTQVTVSS"
  polyreactivity (PSR sort gate): "low polyreactivity"
- ITEM_SEQUENCE: "QVQLVESGGGLVQAGGSLRLSCAASGTTYYNAMGWYRQAPGKERELVAAIRFRSGSTYYADSVKGRFTISRDNAKNTVYLQMNSLKPEDTAVYYFAADNKRSWRYAYNYWGQGTQVTVSS"
  polyreactivity (PSR sort gate): "high polyreactivity"

# input for lookup
QUERY: // returns reported polyreactivity (PSR sort gate) for input QVQLVESGGGLVQAGGSLRLSCAASGFIFHKYVMGWYRQAPGKERELVAAISRSGASTYYADSVKGRFTISRDNAKNTVYFQMNSLKPEDTAVYYCAARYRRRVIATRDYWGQGTQVTVSS
RESULT: high polyreactivity
